# assay comment: viability loss with induced miR-34 in A549 – imaging, A549 dox-inducible miR-34, nuclei and caspase counts, primary screen (AID 1347080)
# experimental parameters: A549 miR-34 inducible, Hoechst nuclei count, 48 h; hits give low values; cell number ratio, induced over uninduced
measure name: fold change

| compound | reported value |
| --- | --- |
| CCCCCCCC/C=C\CCCCCCCC(=O)OCC | 1 |
| CCC(=O)OCN1C(=O)C=CC1=O | 0.956 |
| CCCCCCCCCCCCCC(=O)OCC | 1.01 |
| N[C@@H](C(=O)O)c1ccc(C(=O)O)c(C(=O)O)c1 | 0.914 |
| CCCCc1nc2ccn(CC(=O)N(C)C)c(=O)c2n1Cc1ccc(-c2ccccc2-c2nn[nH]n2)cc1 | 1.01 |
| c1ccc(Oc2nc(NC3CCCCC3)c3[nH]cnc3n2)cc1 | 0.921 |
| CCCCC[C@H](O)/C=C/[C@H]1C=CC(=O)[C@H]1C/C=C\CCCC(=O)O | 1.06 |
| CCCCCCCCCCCCCCCCCC(=O)NCCS(=O)(=O)O | 1.11 |
| CCS(=O)(=O)N1CC(CC#N)(n2cc(-c3ncnc4[nH]ccc34)cn2)C1 | 0.973 |
| Cc1nc2c([nH]1)CCN(C(=O)c1ccc(NC(=O)c3ccccc3-c3ccccc3)cc1)c1ccccc1-2 | 0.926 |
| CCCCC[C@](C)(O)/C=C/[C@H]1[C@H](O)CC(=O)[C@@H]1CCCCCCC(=O)O | 1 |
| C[N+](C)(C)CCCCCNCC12CC3CC(CC(C3)C1)C2 | 0.943 |
| C[C@@H]1C[C@H]2O[C@@H]2/C=C\C=C\C(=O)Cc2c(Cl)c(O)cc(O)c2C(=O)O1 | 1.01 |
| c1cncc(CN2CCC(n3ncc4c(N5CCOCC5)nc(-c5ccc6[nH]ccc6c5)nc43)CC2)c1 | 0.951 |
| c1ccc2cc(C3=NCCN3)ncc2c1 | 0.991 |
| CNC(=O)[C@H](Cc1c[nH]c2ccccc12)NC(=O)[C@@H](CC(=O)NO)CC(C)C | 1.03 |
| CCCCC[C@H](O)/C=C/[C@H]1OC(O)C[C@H](O)[C@@H]1CCCCCCC(=O)O (some centres undefined) | 1.03 |
| CNC(=O)c1nn(C)c2c1C(C)(C)Cc1cnc(Nc3ccc(N4CCN(C)CC4)cc3)nc1-2 | 1.12 |
| CC(C)=CCC/C(C)=C/CC/C(C)=C/CC[C@]1(C)CCc2c(C)c(O)c(C)c(C)c2O1 | 0.928 |

----------
# Tested on: Hepatitis C virus NS3 helicase
# assay comment: blockers of NS3h binding to ssDNA – biochemical, fluorescence polarization, LOPAC1280 library, primary screen (AID 687035)
# experimental parameters: Purified HCV NS3 helicase, Cy5-dT15 ssDNA binding fluorescence polarization; hits give high values; concentration not given here
The entries below are paired with their reported inhibition.

| molecule | inhibition [%] |
| --- | --- |
| CC12C(=O)OC(=O)C1(C)C1CCC2O1 (centres undefined) | 0 |
| CCOC(=O)C12CC1/C(=N\O)c1ccccc1O2 (centres undefined) | 0 |
| C1CCC(N=C(NC23CC4CC(CC(C4)C2)C3)N2CCOCC2)CC1 | -4 |
| CC(C)(C)NCC(O)COc1nsnc1N1CCOCC1 (centres undefined) | -2 |
